Data provenance: patent US9828339B2

target: human muscarinic M3 receptor (Homo sapiens (Human)); assay: Binding assay on human muscarinic M3 receptor ([3H]-methyl scopolamine displacement); conditions: membranes overexpressing human M3 receptor, Ki from IC50 by Cheng-Prusoff, read-out: Binding Affinity to M3 Receptor, Ki
pKi: −log10 of the molar value.
Please enter t where pKi is greater than or equal to 8, and f where it is lower.

Example cases with answers are listed next.
> print(dat)
                                   compound                          target.or.system  group
1  CN1CCCC1CCOC(=O)Nc1ccc(F)cc1-c1ccc(O)c(Cl)c1 (stereo not shown)  human muscarinic M3 receptor (Homo sapiens (Human))      f
2  CN1CCCC1CCOC(=O)Nc1ccccc1-c1ccccc1F (stereo not shown)  human muscarinic M3 receptor (Homo sapiens (Human))      f
3  Cc1cccc(-c2cc(F)ccc2NC(=O)OC[C@@H]2CCN(C)C2)c1  human muscarinic M3 receptor (Homo sapiens (Human))      t
4     O=C(Nc1ccccc1-c1ccccc1)OC[C@@H]1CCNC1  human muscarinic M3 receptor (Homo sapiens (Human))      t

Task: Could you please find out whether Cc1cccc(-c2ccccc2NC(=O)OC[C@@H]2CCCN2C)c1 has pKi that meets 8 or exceeds it?
Result: t

Task: Could you please find out whether COc1ccc(-c2ccccc2)c(NC(=O)OCCC2CCCN2C)c1 (stereo not shown) has pKi that meets 8 or exceeds it?
Result: f

Task: Could you please find out whether CN1CCCC1CCOC(=O)Nc1ccc(Cl)cc1-c1ccc(F)c(Cl)c1 (stereo not shown) has pKi that meets 8 or exceeds it?
Result: t

Task: Could you please find out whether CN1CCCC1CCOC(=O)Nc1ccccc1-c1ccccc1Cl (stereo not shown) has pKi that meets 8 or exceeds it?
Result: f

Task: Could you please find out whether CN1CCC[C@H]1COC(=O)Nc1ccccc1-c1ccc(F)c(Cl)c1 has pKi that meets 8 or exceeds it?
Result: t

Task: Could you please find out whether Cc1ccc(NC(=O)OC[C@@H]2CCN(C)C2)c(-c2ccccc2)c1 has pKi that meets 8 or exceeds it?
Result: f

###

target: human muscarinic M3 receptor (Homo sapiens (Human), UniProt P20309); assay: Binding assay on human muscarinic M3 receptor ([3H]-methyl scopolamine displacement); details: membranes overexpressing human M3 receptor, Ki from IC50 by Cheng-Prusoff, read-out: Binding Affinity to M3 Receptor, Ki
Sequence (P20309 whole entry): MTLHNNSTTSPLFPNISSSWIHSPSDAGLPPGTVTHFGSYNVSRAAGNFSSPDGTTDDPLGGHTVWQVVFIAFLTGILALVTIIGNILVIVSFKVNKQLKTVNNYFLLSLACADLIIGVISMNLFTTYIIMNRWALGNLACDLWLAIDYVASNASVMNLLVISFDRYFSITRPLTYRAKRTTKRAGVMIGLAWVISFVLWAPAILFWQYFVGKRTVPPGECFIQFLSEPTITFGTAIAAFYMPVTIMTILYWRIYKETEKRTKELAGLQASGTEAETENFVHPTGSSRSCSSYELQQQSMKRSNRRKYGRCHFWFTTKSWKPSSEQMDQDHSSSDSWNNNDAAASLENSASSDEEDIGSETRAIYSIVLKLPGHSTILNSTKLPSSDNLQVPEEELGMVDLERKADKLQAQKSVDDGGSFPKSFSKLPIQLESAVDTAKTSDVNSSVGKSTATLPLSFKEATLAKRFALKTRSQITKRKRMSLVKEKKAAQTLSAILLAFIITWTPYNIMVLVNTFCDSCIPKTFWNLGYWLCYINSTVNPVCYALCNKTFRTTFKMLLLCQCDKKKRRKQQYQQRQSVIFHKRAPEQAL
measured_metric: log10(Ki) (log10 of the value in nM)
Reminder: these figures are log10 of reported Ki, in nM before transformation.

Solved cases below.
> print(dat)
                    structure.smiles.string  measured.metric  reported.value
1  CN1CC[C@@H](COC(=O)Nc2ccc(Cl)cc2-c2cccc(Cl)c2)C1        log10(Ki)            1.16
2  CCN1CC[C@H](COC(=O)Nc2ccccc2-c2ccccc2)C1        log10(Ki)            1.11
3  CN1CCC[C@H]1COC(=O)Nc1ccc(F)cc1-c1cc(O)cc(Cl)c1        log10(Ki)            1.78
4  CN1CCC[C@H]1COC(=O)Nc1ccccc1-c1ccc(F)cc1F        log10(Ki)            1.14
5  CN1CCC[C@H]1COC(=O)Nc1ccccc1-c1ccc(Cl)c(Cl)c1        log10(Ki)            0.96
6  CN1CC[C@@H](COC(=O)Nc2ccccc2-c2cc(Cl)ccc2F)C1        log10(Ki)            0.71
7  CCN1CC[C@@H](COC(=O)Nc2ccccc2-c2ccc(F)c(Cl)c2)C1        log10(Ki)            0.75
8  Cc1cccc(-c2cc(F)ccc2NC(=O)OC[C@@H]2CCCN2C)c1        log10(Ki)            0.43

Task: Consider the compound shown here: O=C(Nc1ccc(F)cc1-c1cc(F)cc(F)c1)OC[C@@H]1CCNC1 What is its recorded log10(Ki)?
Result: 1.54
